- Tested on: replicating stage M. tuberculosis (Mtb)
- Experiment Description: MIC against replicating Mtb
- Format: cell-based, Mycobacterium tuberculosis
- Test Settings: Mycobacterium tuberculosis; Table 10; pure compounds; replicating Mtb; read-out: MIC (Mtb-rep)
Measurement Label: MIC (µg/mL)
// units = µg/mL; emit number, no label

Known MIC results, listed for orientation:
>>> observed_result("CC[C@H](C)/C=C(C)/C=C/C1=CC2=C(Cl)C(=O)[C@](C)(OC(C)=O)C(=O)C2=CN1CCO [EtOAc-O-7, Isochromophilone VI]")
18.6
>>> observed_result("COc1cc(CC(=O)CO)c(C=O)c(O)c1C [EtOAc-M-6-3]")
50
>>> observed_result("C/C=C(/C(=O)O)N1C(=O)C=C(C)C1=O [EtOAc-G-4, pencolide]")
50

// switching to the query compound
Query MIC for COc1cc2c(c(O)c1C)COC2=O [EtOAc-F-8-3]
200
